Overview of reported cell viability across a group of compounds:
system: U2OS; test: cell viability relative to DMSO; higher = less toxic; conditions: 72 h; 1 nM
Provide the reading as a plain figure in %.

Please review the entries below; each comes with its answer.
compound	units_label	value
CC(C)(O)CS(=O)(=O)Nc1ccc2c(c1)CCN(C(=O)COc1cccnc1)C2	%	108
COc1cc(CNC(=O)CCCC/C=C/C(C)C)ccc1O	%	106
CCN(C(=O)c1c(O)c2c(Cl)cccc2n(C)c1=O)c1ccccc1	%	96.9
O=P(O)(NCCCl)NCCCl [palifosfamide]	%	100
CC(C)c1ccc(C(=O)N=C(N)N)cc1S(C)(=O)=O [cariporide]	%	100

Problem: cell viability for `O=c1ccc2c(OCCCCOc3ccccc3)c3ccoc3cc2o1` ?
Result: 98.1

Problem: Then what about the compound `CCCOc1ccc2[nH]cc(C3=CCNCC3)c2n1` ?
Result: 103

Problem: Then what about the compound O=C(Nc1ccccc1C(=O)NC1CCCCNC1=O)c1cc2ccccc2s1 (stereo not given) ?
Result: 97.8

Problem: Then what about the compound O=C(O)/C=C(/CC(=O)O)C(=O)O [cis-aconitic-acid] ?
Result: 98.3

Problem: Then what about the compound `Nc1ncnc2c1ncn2[C@H]1O[C@@H](C(=O)N2CCN(CC(=O)Nc3cccc4c3CNC4=O)CC2)[C@H](O)[C@@H]1O` ?
Result: 99.4

# credit: the supplement of paper PMC13380429
